# SYSTEM NAME: Human fibrinogen receptor (αIIbβ3) (Homo sapiens, UniProt P05106+P08514)
# Construct: Human fibrinogen receptor (αIIbβ3) was purified from outdated platelets
# Sequence (P08514 32-887 limits assumed): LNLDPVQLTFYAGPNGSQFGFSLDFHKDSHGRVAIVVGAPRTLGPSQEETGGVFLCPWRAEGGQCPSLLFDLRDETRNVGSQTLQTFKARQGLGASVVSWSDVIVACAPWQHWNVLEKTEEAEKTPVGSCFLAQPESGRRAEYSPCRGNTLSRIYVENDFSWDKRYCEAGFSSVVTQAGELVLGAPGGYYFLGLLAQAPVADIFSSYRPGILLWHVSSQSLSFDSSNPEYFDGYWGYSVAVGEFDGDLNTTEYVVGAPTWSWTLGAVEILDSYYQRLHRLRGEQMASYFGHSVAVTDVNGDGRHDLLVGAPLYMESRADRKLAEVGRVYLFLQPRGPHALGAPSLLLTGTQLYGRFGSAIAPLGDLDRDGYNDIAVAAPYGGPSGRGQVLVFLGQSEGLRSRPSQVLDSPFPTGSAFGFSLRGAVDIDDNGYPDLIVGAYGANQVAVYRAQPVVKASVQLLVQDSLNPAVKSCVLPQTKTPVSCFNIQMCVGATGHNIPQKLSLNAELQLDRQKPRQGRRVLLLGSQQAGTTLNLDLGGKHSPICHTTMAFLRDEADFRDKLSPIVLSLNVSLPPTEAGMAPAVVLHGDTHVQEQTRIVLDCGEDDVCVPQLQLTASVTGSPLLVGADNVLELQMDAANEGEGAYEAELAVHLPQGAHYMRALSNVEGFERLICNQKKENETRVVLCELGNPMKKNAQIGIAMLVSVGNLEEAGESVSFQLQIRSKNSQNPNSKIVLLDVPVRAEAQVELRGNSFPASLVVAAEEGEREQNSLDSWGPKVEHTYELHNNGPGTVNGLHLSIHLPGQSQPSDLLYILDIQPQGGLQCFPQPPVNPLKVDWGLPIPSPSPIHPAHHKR
# Sequence (P08514 891-1039 partner limits assumed): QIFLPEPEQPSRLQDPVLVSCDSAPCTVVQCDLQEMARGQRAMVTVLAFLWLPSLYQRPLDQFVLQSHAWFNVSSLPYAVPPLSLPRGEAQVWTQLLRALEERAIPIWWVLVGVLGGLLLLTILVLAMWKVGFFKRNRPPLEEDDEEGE
# Sequence (P05106 27-788): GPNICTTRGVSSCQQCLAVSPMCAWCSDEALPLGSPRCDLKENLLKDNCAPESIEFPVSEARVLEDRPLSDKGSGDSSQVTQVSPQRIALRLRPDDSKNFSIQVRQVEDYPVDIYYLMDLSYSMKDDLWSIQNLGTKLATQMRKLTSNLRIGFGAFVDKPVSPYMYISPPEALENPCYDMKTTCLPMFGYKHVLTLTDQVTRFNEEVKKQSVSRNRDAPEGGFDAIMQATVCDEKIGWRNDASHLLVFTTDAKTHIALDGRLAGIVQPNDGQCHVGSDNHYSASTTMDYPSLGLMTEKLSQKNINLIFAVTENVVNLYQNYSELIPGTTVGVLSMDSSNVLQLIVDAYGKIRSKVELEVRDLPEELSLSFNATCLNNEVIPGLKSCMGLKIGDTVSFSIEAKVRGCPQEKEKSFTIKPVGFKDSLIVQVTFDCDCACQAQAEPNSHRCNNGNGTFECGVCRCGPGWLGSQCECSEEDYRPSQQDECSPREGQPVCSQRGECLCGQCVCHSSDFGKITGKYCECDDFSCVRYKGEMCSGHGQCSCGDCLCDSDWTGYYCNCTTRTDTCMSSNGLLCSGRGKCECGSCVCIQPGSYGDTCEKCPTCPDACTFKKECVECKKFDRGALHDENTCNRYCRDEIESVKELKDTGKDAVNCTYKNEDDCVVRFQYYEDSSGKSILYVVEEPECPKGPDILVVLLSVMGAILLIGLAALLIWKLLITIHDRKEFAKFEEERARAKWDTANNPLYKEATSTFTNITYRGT
# PROTOCOL TEXT: Purified IIb/IIIa receptor assay (solid phase receptor assay, competition with biotinylated vitronectin)
# CONDITIONS USED: purified human αIIbβ3 from platelets; 1 nM biotinylated vitronectin; highest concentration 1.0×10^−4 M
Counter-ions that a name gives are not always drawn.
pIC50 by entry:
// pIC50 here means minus log10 of the molar concentration (mol/L)

Illustrative cases are given below, each with its answer.
{"COMPOUND": "C=CC(CC(=O)O)NS(=O)(=O)c1cccc(NC(=O)c2cccc(NC(=N)N)c2)c1 (racemic) [Example 3, Trifluoroacetate Salt]", "SYSTEM NAME": "Human fibrinogen receptor (αIIbβ3) (Homo sapiens, UniProt P05106+P08514)", "pIC50": 7.94}
{"COMPOUND": "N=C(N)Nc1cccc(S(=O)(=O)Nc2cccc(S(=O)(=O)NC(CC(=O)O)c3ccccc3)c2)c1 (centres unmarked) [Example 9, Trifluoroacetate Salt]", "SYSTEM NAME": "Human fibrinogen receptor (αIIbβ3) (Homo sapiens, UniProt P05106+P08514)", "pIC50": 7.03}
{"COMPOUND": "N=C(N)Nc1cccc(C(=O)Nc2cccc(S(=O)(=O)NC(CC(=O)O)c3cc(Cl)cc(Cl)c3)c2)c1 (racemic) [Example 4, Trifluoroacetate Salt]", "SYSTEM NAME": "Human fibrinogen receptor (αIIbβ3) (Homo sapiens, UniProt P05106+P08514)", "pIC50": 6.01}
{"COMPOUND": "N=C(N)Nc1cccc(C(=O)Nc2cccc(S(=O)(=O)NC(CC(=O)O)c3cccnc3)c2)c1 (centres unmarked) [Example 5, tris(Trifluoroacetate) Salt]", "SYSTEM NAME": "Human fibrinogen receptor (αIIbβ3) (Homo sapiens, UniProt P05106+P08514)", "pIC50": 7.61}
{"COMPOUND": "N=C(N)Nc1cccc(C(=O)Nc2cccc(S(=O)(=O)N3CCCCC3CC(=O)O)c2)c1 (centres unmarked) [Example 6, Trifluoroacetate Salt]", "SYSTEM NAME": "Human fibrinogen receptor (αIIbβ3) (Homo sapiens, UniProt P05106+P08514)", "pIC50": 5.41}

Input: Recall the recorded pIC50 for C#C[C@H](CC(=O)O)NS(=O)(=O)c1cccc(NC(=O)c2cccc(NC3=NCCN3)c2)c1 [Example 7, Trifluoroacetate Salt] with Human fibrinogen receptor (αIIbβ3) (Homo sapiens, UniProt P05106+P08514) and state it.
Output: 6.38

Input: Recall the recorded pIC50 for C#CC(CC(=O)O)NS(=O)(=O)c1cccc(NC(=O)c2cccc(NC(=N)N)c2)c1 (centres unmarked) [Example 8, Trifluoroacetate Salt] with Human fibrinogen receptor (αIIbβ3) (Homo sapiens, UniProt P05106+P08514) and state it.
Output: 7.42

Input: Recall the recorded pIC50 for N=C(N)Nc1cccc(C(=O)Nc2cccc(S(=O)(=O)NC(CC(=O)O)c3ccccc3)c2)c1 (centres unmarked) [Example 1, Trifluoroacetate Salt] with Human fibrinogen receptor (αIIbβ3) (Homo sapiens, UniProt P05106+P08514) and state it.
Output: 7.95
